These measurements were taken from the supplement of paper PMC8047044.

Listed below: neurite formation score values for each entry.
- Test system: Neuro-2a
- Protocol Text: neurite formation score, plate-normalized to DMSO control mean 5.04 (score (0-8 scale)); higher = more or longer neurites
- Experimental Context: 1 µM

Smiles Entry	neurite formation score
CNC(=O)c1nn(C)c2c1C(C)(C)Cc1cnc(Nc3ccc(N4CCN(C)CC4)cc3)nc1-2	3.29
Cc1cn(-c2cc(NC(=O)c3ccc(C)c(Nc4nccc(-c5cccnc5)n4)c3)cc(C(F)(F)F)c2)cn1	4.57
CCS(=O)(=O)N1CC(CC#N)(n2cc(-c3ncnc4[nH]ccc34)cn2)C1	4.02
COc1cc2nccc(Oc3ccc(NC(=O)C4(C(=O)Nc5ccc(F)cc5)CC4)cc3)c2cc1OC	3.57
O=c1cc(CN2CCOCC2)occ1OCCCCCSc1ccnc2cc(C(F)(F)F)ccc12	4.21
COc1cc2nccc(Oc3ccc(NC(=O)Nc4cc(C)on4)c(Cl)c3)c2cc1OC	4.24
CN(C)C(=O)c1cc2cnc(Nc3ccc(N4CCNCC4)cn3)nc2n1C1CCCC1	4.96
COc1cc2ncnc(Nc3cccc(Cl)c3)c2cc1OC	3.57
CC(C)(C)n1nc(Cc2cccc3ccccc23)c2c(N)ncnc21	4.63
Oc1ccc(Nc2nc(-c3ccc(Cl)cc3)cs2)cc1	4.21

----------
- Test system: Neuro-2a
- Protocol Text: neurite formation score, plate-normalized to DMSO control mean 5.04 (score (0-8 scale)); higher = more or longer neurites
- Experimental Context: 1 µM
Listed below: neurite formation score values for each entry.

Compound	neurite formation score
Cc1cc(CS(=O)(=O)c2ccccc2)cc(OCc2ccc(CN3CCC[C@@H]3CO)cc2)c1	4.69
CC(C)(C)NS(=O)(=O)c1cncc(-c2cc(F)c3nc(N)nn3c2)c1	4.36
O=C(NC(NC(=S)Nc1ccc(F)c([N+](=O)[O-])c1)C(Cl)(Cl)Cl)C(c1ccccc1)c1ccccc1 (stereo not given)	3.96
COc1cc(C(=O)NC2CCN(C)CC2)c(F)cc1Nc1ncc2c(n1)N(C1CCCC1)CC(F)(F)C(=O)N2C	5.54
Cc1c[nH]c(/C=C2\C(=O)Nc3ccccc32)c1CCC(=O)O	6.02

----------
- Test system: Neuro-2a
- Protocol Text: neurite formation score, plate-normalized to DMSO control mean 5.04 (score (0-8 scale)); higher = more or longer neurites
- Experimental Context: 0.1 µM
Counter-ions that a name gives are not always drawn.
Label rule, in plain words: neurite formation score of 4 and up is 1 (yes), under 4 is 0 (no).

Molecule	Cat
O=[N+]([O-])c1ccc(-c2nc(-c3ccc(F)cc3)c(-c3ccncc3)[nH]2)cc1	1 (yes)
CNC(=O)c1cc(Oc2ccc(NC(=O)Nc3ccc(Cl)c(C(F)(F)F)c3)cc2)ccn1 [Sorafenib Tosylate]	0 (no)
CCNc1nc(Nc2cc(F)c(C(=O)N3CCOCC3)cc2OC)ncc1C(F)(F)F	0 (no)
CC(=O)Nc1cccc(-n2c(=O)n(C3CC3)c(=O)c3c(Nc4ccc(I)cc4F)n(C)c(=O)c(C)c32)c1	1 (yes)
CCS(=O)(=O)c1cccc(-c2cc(C(=O)NC3CCN(C)CC3)c(C)c3[nH]c4ncc(C)cc4c23)c1	1 (yes)
O=C(Nc1ccc(CN2CCOCC2)cc1)c1ccc(-c2cccc(Cl)c2)o1	1 (yes)
COc1cc2ncc(-c3ccccc3)nc2cc1OC [Tyrphostin AG 1296]	1 (yes)
CCS(=O)(=O)N1CCN(c2ccc(Nc3ncc(C(N)=O)c(NC4CC4)n3)cc2)CC1	1 (yes)
CN(C)Cc1cccc(N=C(c2ccccc2)c2c(O)[nH]c3cc(C(N)=O)ccc23)c1	1 (yes)
CO[C@H]1C[C@@H]2CC[C@@H](C)[C@@](O)(O2)C(=O)C(=O)N2CCCC[C@H]2C(=O)O[C@H]([C@H](C)C[C@@H]2CC[C@@H](O)[C@H](OC)C2)CC(=O)[C@H](C)/C=C(\C)[C@@H](O)[C@@H](OC)C(=O)[C@H](C)C[C@H](C)/C=C/C=C/C=C/1C [Rapamycin (Sirolimus)]	1 (yes)
CCOc1cc2ncc(C#N)c(Nc3ccc(F)c(Cl)c3)c2cc1NC(=O)/C=C/CN(C)C [Pelitinib (EKB-569)]	1 (yes)
Nc1ncnc2c1c(-c1cnc3[nH]ccc3c1)nn2C1CCCC1	1 (yes)
O=C(Nc1ccc(-c2ccnc(Nc3ccc(N4CCOCC4)cc3)n2)cc1)C1CCCN1 (configuration not stated)	1 (yes)
Nc1cc(C(F)(F)F)c(-c2cc(N3CCOCC3)nc(N3CCOCC3)n2)cn1	0 (no)
COc1cc(-c2cc(-c3ccc(N4CCNCC4)cc3)cnc2C)cc(OC)c1OC	1 (yes)
Cn1cc(-c2[nH]c3cc(NC(=O)[C@H](N)C4CCCCC4)cc4c3c2C=NNC4=O)cn1	1 (yes)

----------
- Tested on: Neuro-2a
- Protocol Text: neurite formation score, plate-normalized to DMSO control mean 5.04 (score (0-8 scale)); higher = more or longer neurites
- Experimental Context: 1 µM
Listed below: neurite formation score values for each entry.

Compound	neurite formation score
COc1ccc(-c2cc3c(C)nc(N)nc3n([C@H]3CC[C@H](OCCO)CC3)c2=O)cn1	3.96
CS(=O)(=O)c1cccc(CNc2nc(Nc3ccc4c(c3)CCC(=O)N4)ncc2C(F)(F)F)c1	3.47
C=CC(=O)N1CCC[C@@H](n2nc(-c3ccc(Oc4ccccc4)cc3)c3c(N)ncnc32)C1	3.24
C[C@@H](Oc1cc(-c2cnn(C3CCNCC3)c2)cnc1N)c1c(Cl)ccc(F)c1Cl [(R)-Crizotinib]	4.91
Cc1cc(C)c(/C=C2\C(=O)Nc3ccccc32)[nH]1 [Semaxanib (SU5416)]	4.54
COc1cc2ncc(-c3ccccc3)nc2cc1OC [Tyrphostin AG 1296]	5.24
C[C@@H](Oc1cc(-n2cnc3ccc(CN4CCN(C)CC4)cc32)sc1C(N)=O)c1ccccc1C(F)(F)F	4.29
CNC(=O)CN1CCC(Oc2cc3c(Nc4cccc(Cl)c4F)ncnc3cc2OC)CC1 [AZD8931 (Sapitinib)]	4.29

----------
- System: Neuro-2a
- Protocol Text: neurite formation score, plate-normalized to DMSO control mean 5.04 (score (0-8 scale)); higher = more or longer neurites
- Experimental Context: 1 µM
Where a name gives a salt, the structure may show the parent alone.
Listed below: neurite formation score values for each entry.

Compound	Measured On	neurite formation score
Cc1nc(Nc2cnn(C3CCNCC3)c2)nc2c1N(C)C(=O)c1cc3ccccc3cc1N2C	Neuro-2a	3.96
NC(=O)Nc1sc(-c2ccc(F)cc2)cc1C(N)=O	Neuro-2a	4.36
Clc1ccc(C2(c3ccc(-c4cn[nH]c4)cc3)CCNCC2)cc1	Neuro-2a	5.24
O=C(c1ccc(Nc2nccc(-c3cc4ccccc4s3)n2)cc1)N1CCC(N2CCCC2)CC1	Neuro-2a	4.54
O=C(NCc1cccc(O)c1)Nc1nc(-c2ccncc2)cs1	Neuro-2a	5.02
CC(C)n1nc(-c2ccc3oc(N)nc3c2)c2c(N)ncnc21	Neuro-2a	3.96
CNC(=O)c1cc(Oc2ccc(NC(=O)Nc3ccc(Cl)c(C(F)(F)F)c3)c(F)c2)ccn1 [Regorafenib hydrochloride]	Neuro-2a	3.69
NC(=S)N/N=C/c1ncccc1N	Neuro-2a	4.88
O=[N+]([O-])c1ccc(-c2nc(-c3ccc(F)cc3)c(-c3ccncc3)[nH]2)cc1	Neuro-2a	3.96
O=c1ncn2nc(Sc3ccc(F)cc3F)ccc2c1-c1c(Cl)cccc1Cl	Neuro-2a	4.29

----------
- Test system: Neuro-2a
- Protocol Text: neurite formation score, plate-normalized to DMSO control mean 5.04 (score (0-8 scale)); higher = more or longer neurites
- Experimental Context: 1 µM

Compound	neurite formation score
Cc1nc(-c2cn3c(n2)-c2ccc(-c4cnn(C(C)(C)C(N)=O)c4)cc2OCC3)n(C(C)C)n1	5.29
CCNc1nc(Nc2cc(F)c(C(=O)N3CCOCC3)cc2OC)ncc1C(F)(F)F	3.21
O=C1c2ccc(Nc3ccc(F)cc3F)cc2CCc2ccc(OC[C@H](O)CO)cc21 [Skepinone-L]	5.02
CN(C)C/C=C/C(=O)Nc1cc2c(Nc3ccc(F)c(Cl)c3)ncnc2cc1O[C@H]1CCOC1 [Afatinib (BIBW2992)]	3.57
Cc1ccc(S(=O)(=O)Nc2nc3ccccc3nc2Nc2ccc3nsnc3c2)cc1	4.14
Cn1c(Nc2ccc(C(F)(F)F)cc2)nc2cc(Oc3ccnc(-c4ncc(C(F)(F)F)[nH]4)c3)ccc21	4.24
CCN(CC)CCCC(C)Nc1ccnc2cc(Cl)ccc12 (stereo not drawn) [Chloroquine diphosphate]	4.96
CNC(=O)c1cc(Oc2ccc(NC(=O)Nc3ccc(Cl)c(C(F)(F)F)c3)c(F)c2)ccn1 [Regorafenib]	5.24

----------
- System: Neuro-2a
- Protocol Text: neurite formation score, plate-normalized to DMSO control mean 5.04 (score (0-8 scale)); higher = more or longer neurites
- Experimental Context: 0.1 µM
Where a name gives a salt, the structure may show the parent alone.

Molecule	neurite formation score
O=c1c(-c2ccc(O)cc2)coc2cc(O)cc(O)c12	3.38
Cc1ccc(C(=O)Nc2ccc(CN3CCN(C)CC3)c(C(F)(F)F)c2)cc1C#Cc1cnc2cccnn12	3.88
N#CCNC(=O)c1ccc(-c2ccnc(Nc3ccc(N4CCOCC4)cc3)n2)cc1 [CYT387 sulfate salt]	4.92
Nc1cccc(S(=O)(=O)N2CCCN(S(=O)(=O)c3ccc4c(c3)OCCO4)CC2)c1	4.09
O=C(Nc1ccc2[nH]nc(-c3ccncc3)c2c1)[C@@H]1CCN(CC(=O)N2CCN(c3ccc(-c4ncccn4)cc3)CC2)C1	5.09
O=C(NCCCNc1nc(Nc2cccc(CN3CCOCC3)c2)ncc1C1CC1)C1CCC1	5.25
C=CC(=O)Nc1cc2c(Nc3ccc(F)c(Cl)c3)ncnc2cc1OCCCN1CCOCC1	4.71
C=CC(=O)Nc1cccc(Sc2nc(Nc3ccc(N4CCN(C)CC4)cc3)ncc2Cl)c1	4.71
